Hello, the source for this data is patent US11236055B2, in case you need it.

Overview of recorded EC50 for various molecules
- study_system: human TGR5 receptor (Homo sapiens)
- Sequence (Q8TDU6 whole entry): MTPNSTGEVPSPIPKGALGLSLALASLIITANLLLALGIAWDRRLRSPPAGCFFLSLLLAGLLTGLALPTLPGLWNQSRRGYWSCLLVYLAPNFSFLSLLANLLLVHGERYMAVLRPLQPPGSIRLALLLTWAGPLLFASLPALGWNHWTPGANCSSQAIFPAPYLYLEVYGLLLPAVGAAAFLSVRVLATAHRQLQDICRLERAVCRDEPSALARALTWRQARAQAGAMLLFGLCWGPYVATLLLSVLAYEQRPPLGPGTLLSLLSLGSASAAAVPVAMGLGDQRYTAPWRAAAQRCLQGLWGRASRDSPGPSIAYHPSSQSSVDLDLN
- run_description: Human TGR5 cAMP production assay
- test_parameters: human TGR5, luminescent cAMP assay; coded A-D; read-out: Human TGR5 Lum. cAMP Activity (EC50)
- Experimental: Human TGR5 cAMP Production Assay We evaluated the Compounds of the present invention for their ability to induce cAMP production using CHO-K1 cells overexpressing the human TGR5 receptor. […] Test compounds were serially diluted (half-log dilutions) in DMSO and then further diluted 1:50 in PBS, 10 mM HEPES buffer. […] Luminescent signal was then detected using the Viewlux instrument (Perkin-Elmer, Waltham, Mass.). […]

Sample records with EC50:
# molecule, study_system, measured_property, result
records = [
    ("O=S(=O)(NCc1cc(-c2ccncc2)ccc1F)c1cccc(C(F)(F)F)c1 [Compound 1AU]", "human TGR5 receptor (Homo sapiens)", "EC50", "1000 to 30000 nM"),
    ("Cc1cnccc1-c1cccc([C@H](CCCC(=O)NCS(=O)(=O)O)NS(=O)(=O)c2ccccc2C(F)(F)F)c1 [Compound 20BR]", "human TGR5 receptor (Homo sapiens)", "EC50", "100 to 999 nM"),
    ("Cc1cnccc1-c1cccc(C2CNCCN2S(=O)(=O)c2cccc(Cl)c2C)c1 (stereo not shown) [Compound 43AE]", "human TGR5 receptor (Homo sapiens)", "EC50", "100 to 999 nM"),
]

Now for the molecule whose EC50 we want.
## Task Indicate the recorded EC50 value for this molecule: Cc1cnccc1-c1cccc([C@H]2C[C@@H](C(=O)O)CCN2S(=O)(=O)c2ccccc2C(F)(F)F)c1 (relative stereo) [Compound 55]
## Result 100 to 999 nM

###

pEC50 values for the compounds below.
- study_system: mouse TGR5 receptor (Mus musculus, UniProt Q80SS6)
- Construct: expressed in transfected cells; host or cells: HEK293-EBNA (293 c18, ATCC CRL10852), Hygromycin B selection
- Sequence (Q80SS6 1-329): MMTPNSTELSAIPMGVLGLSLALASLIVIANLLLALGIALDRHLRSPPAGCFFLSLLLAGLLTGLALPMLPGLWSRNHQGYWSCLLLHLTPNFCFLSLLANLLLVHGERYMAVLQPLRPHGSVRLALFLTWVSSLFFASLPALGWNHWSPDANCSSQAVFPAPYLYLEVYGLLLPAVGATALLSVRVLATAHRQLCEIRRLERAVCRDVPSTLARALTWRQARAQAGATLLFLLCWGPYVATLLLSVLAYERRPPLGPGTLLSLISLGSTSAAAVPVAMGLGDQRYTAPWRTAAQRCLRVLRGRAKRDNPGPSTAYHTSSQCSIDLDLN
- run_description: Mouse TGR5 cAMP production assay (HTRF, Cisbio cAMP HiRange)
- Type: cell-based
- test_parameters: HEK293-EBNA cells overexpressing mouse TGR5, HTRF cAMP HiRange; coded A-D
pEC50: −log10 of the molar value.

The cases that follow already have their pEC50 on record.
# compound, study_system, pEC50
records = [
    ("Cc1cnccc1-c1cccc([C@H](C)N(CCCCNC(=O)[C@@H](N)CS(=O)(=O)O)S(=O)(=O)c2ccccc2C(F)(F)F)c1 [Compound 31AC]", "mouse TGR5 receptor (Mus musculus, UniProt Q80SS6)", "> 7.00"),
    ("Cc1cnccc1-c1cccc([C@H](C)N(CCC(=O)O)S(=O)(=O)c2cccc(Cl)c2C)c1 [Compound 16AK]", "mouse TGR5 receptor (Mus musculus, UniProt Q80SS6)", "4.52 to 6.00"),
    ("Cc1cnccc1-c1cccc([C@H](CCCC#N)N(CCCC(=O)O)S(=O)(=O)c2cccc(Cl)c2C)c1 [Compound 15AD]", "mouse TGR5 receptor (Mus musculus, UniProt Q80SS6)", "6.00 to 7.00"),
]

## Task Consider the compound COc1cccc(S(=O)(=O)N2CCN(C(=O)CCC(=O)O)CC2c2cccc(-c3ccncc3C)c2)c1 (stereo not shown) [Compound 46AJ] and give its recorded pEC50.
## Result 6.00 to 7.00
